experimental target: 5-hydroxytryptamine receptor 2A (Homo sapiens)
experiment notes: 5-hydroxytryptamine receptor 2A (HTR2A) small molecule agonists, cell-based qHTS assay (AID 1963587); further: nearly all actives have a fitted effect of over 30% in size; further: potency means the concentration at half of the fitted maximal effect
experimental context: HTR2A-CHO cells, calcium flux fluorescence, agonist mode; series mostly up to 76.8 µM
Results filed as inconclusive are left out. Calls of active or inactive are those of the source. The call rests on the fitted dose curve.
experimental endpoint: Potency

O=C(O)c1ccccc1C(=O)OCc1ccccc1: inactive
CN(C)c1ccncc1: inactive
CCC(CN)=C(c1ccccc1)c1ccccc1: 23.9 µM (active)

----------
experimental target: 5-hydroxytryptamine receptor 2A (Homo sapiens) (UniProt P28223)
Sequence (P28223 whole entry, looked up): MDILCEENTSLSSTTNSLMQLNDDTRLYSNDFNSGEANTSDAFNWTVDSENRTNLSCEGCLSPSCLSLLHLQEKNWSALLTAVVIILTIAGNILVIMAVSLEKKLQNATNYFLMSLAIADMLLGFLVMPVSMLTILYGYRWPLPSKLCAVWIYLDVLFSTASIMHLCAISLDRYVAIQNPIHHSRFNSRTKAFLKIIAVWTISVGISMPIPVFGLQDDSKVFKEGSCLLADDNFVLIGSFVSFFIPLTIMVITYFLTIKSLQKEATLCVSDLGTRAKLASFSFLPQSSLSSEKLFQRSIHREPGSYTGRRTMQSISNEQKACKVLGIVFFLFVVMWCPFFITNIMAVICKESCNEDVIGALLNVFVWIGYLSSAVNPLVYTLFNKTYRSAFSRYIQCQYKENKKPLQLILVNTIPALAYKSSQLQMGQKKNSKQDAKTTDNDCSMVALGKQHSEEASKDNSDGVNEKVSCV
experiment notes: 5-hydroxytryptamine receptor 2A (HTR2A) small molecule agonists, cell-based qHTS assay (AID 1963587); further: nearly all actives have a fitted effect of over 30% in size; further: potency means the concentration at half of the fitted maximal effect
experimental context: HTR2A-CHO cells, calcium flux fluorescence, agonist mode; series mostly up to 76.8 µM
Experimental: National Center for Advancing Translational Sciences [NCATS] Division of Preclinical Innovation [DPI] U.S. Environmental Protection Agency [EPA] National Institutes of Environmental Health Sciences [NIEHS] National Toxicology Program [NTP] […] HTR2A-CHO cells were dispensed at 2000 cells/3uL/well in 1536-well black-clear bottom plates using a Multidrop Dispenser. […] The fluorescence intensity in the plates was measured using FDSS 7000EX kinetic plate reader for 2 min at 1 sec intervals.
Records with an inconclusive call do not appear. Active and inactive are the calls of the source. The call rests on the fitted dose curve.
experimental endpoint: Potency

Below, each entry is followed by its recorded Potency result.
OC/C=C/c1ccccc1: inactive
CCN(CC)c1ccc2c(c1)Oc1cc(N(CC)CC)ccc1C21OC(=O)c2ccccc21: 21.3 µM (active)
Oc1ccc(N=Nc2ccccc2)cc1: inactive
COc1ccc2ccccc2c1: inactive
Oc1cccc2c(O)cccc12: inactive
CCCCCCCCCC[N+](C)(CCCCCCCCCC)CCC[Si](OC)(OC)OC: inactive
CCCCO: inactive
COC(=O)[C@H]1[C@H]2C[C@@H]3c4[nH]c5cc(OC)ccc5c4CCN3C[C@H]2C[C@@H](OC(=O)/C=C/c2ccc(O)c(OC)c2)[C@@H]1OC: 19 µM (active)
CCCCN1C(=O)c2ccccc2C1=O: inactive
CCC(C)(CN(C)C)OC(=O)c1ccccc1 (stereo not drawn): inactive

Give reported Potency value for CC(C(O)c1ccccc1)N(C)CCOC(c1ccccc1)c1ccccc1 (stereo not drawn)
23.9 µM (active)

Determine its reported Potency: CCc1ncc(C)[nH]1
inactive

Please report Potency for the following compound: CC/C=C\CCCCCO
inactive

Quick one: give measured Potency for CC(O)CN (stereo not drawn)
inactive

Give the value of Potency reported for the following: C[C@H](CCC(=O)O)[C@H]1CC[C@H]2[C@@H]3CC[C@@H]4C[C@H](O)CC[C@]4(C)[C@H]3CC[C@]12C
24.4 µM (active)

Given CC(=O)c1ccc2c(c1)N(CCCN(C)C)c1ccccc1S2 , respond with its Potency.
inactive

Using known records, supply Potency for c1cc(CCCc2ccncc2)ccn1
inactive

Give the measured Potency for O=C1Nc2ccc([N+](=O)[O-])cc2C1=O
inactive

Assign Potency to the following record: CCN(CC)CCNC(C(=O)OCCC(C)C)c1ccccc1 (stereo not drawn)
inactive

# return recorded Potency for entry O=C(Oc1ccccc1)c1cccc(C(=O)Oc2ccccc2)c1
inactive

Please list Potency recorded for the compound COc1ccccc1OCC1CNC(=O)O1 (stereo not drawn)
inactive

Look up Potency of CN(C)c1ccc(O)c2c1C[C@H]1C[C@H]3[C@H](N(C)C)C(=O)C(C(N)=O)=C(O)[C@@]3(O)C(=O)C1=C2O and report it.
inactive

Tell us which Potency value is on record for O=C1c2c(O)ccc([N+](=O)[O-])c2C(=O)c2c([N+](=O)[O-])ccc(O)c21
inactive
